Tested on: MCF7;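 note: secreted proteins added to cultured cells, EdU pulse at the end, nuclei found by Hoechst imaging, EdU status from nuclear versus surrounding ring intensity ratio, PBS as neutral control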
Assay: percentage of EdU-negative (G0-arrested) nuclei per well, 72 h; higher = more G0 arrest
Settings: protein concentration 0.225 µM; reference: sequence is the full UniProt precursor, the tested protein was the secreted form or ectodomain
Reported percentage of EdU-negative values follow for various sequences

{"Sequence Text": "MQCWQQPFLRFLQQPFFLATASLAGSSSSFNVLIPKRDEDGDGEGPGDVTAGVSRAAGSPSGWEAPWVQQPRCCRRATPVCCAGQGPPRSLQQGGSEVLLGQLCSPEPDWLPSSGPKVAKQVFQVAAELLQHPEHFVPSSVPEGCVHKPGSTCDGSLKGRAYPSCVPKRDPEHSREESHPLSG [Q6UXR6]", "percentage of EdU-negative": "26.1%"}
{"Sequence Text": "MWVPVVFLTLSVTWIGAAPLILSRIVGGWECEKHSQPWQVLVASRGRAVCGGVLVHPQWVLTAAHCIRNKSVILLGRHSLFHPEDTGQVFQVSHSFPHPLYDMSLLKNRFLRPGDDSSHDLMLLRLSEPAELTDAVKVMDLPTQEPALGTTCYASGWGSIEPEEFLTPKKLQCVDLHVISNDVCAQVHPQKVTKFMLCAGRWTGGKSTCSGDSGGPLVCNGVLQGITSWGSEPCALPERPSLYTKVVHYRKWIKDTIVANP", "percentage of EdU-negative": "25%"}
{"Sequence Text": "MSRREGSLEDPQTDSSVSLLPHLEAKIRQTHSLAHLLTKYAEQLLQEYVQLQGDPFGLPSFSPPRLPVAGLSAPAPSHAGLPVHERLRLDAAALAALPPLLDAVCRRQAELNPRAPRLLRRLEDAARQARALGAAVEALLAALGAANRGPRAEPPAATASAASATGVFPAKVLGLRVCGLYREWLSRTEGDLGQLLPGGSA", "percentage of EdU-negative": "26.5%"}
{"Sequence Text": "MNAFLLSALCLLGAWAALAGGVTVQDGNFSFSLESVKKLKDLQEPQEPRVGKLRNFAPIPGEPVVPILCSNPNFPEELKPLCKEPNAQEILQRLEEIAEDPGTCEICAYAACTGC", "percentage of EdU-negative": "24.3%"}
{"Sequence Text": "MARLALSPVPSHWMVALLLLLSAEPVPAARSEDRYRNPKGSACSRIWQSPRFIARKRGFTVKMHCYMNSASGNVSWLWKQEMDENPQQLKLEKGRMEESQNESLATLTIQGIRFEDNGIYFCQQKCNNTSEVYQGCGTELRVMGFSTLAQLKQRNTLKDGIIMIQTLLIILFIIVPIFLLLDKDDSKAGMEEDHTYEGLDIDQTATYEDIVTLRTGEVKWSVGEHPGQE", "percentage of EdU-negative": "26.8%"}
{"Sequence Text": "MAWMLLLILIMVHPGSCALWVSQPPEIRTLEGSSAFLPCSFNASQGRLAIGSVTWFRDEVVPGKEVRNGTPEFRGRLAPLASSRFLHDHQAELHIRDVRGHDASIYVCRVEVLGLGVGTGNGTRLVVEKEHPQLGAGTVLLLRAGFYAVSFLSVAVGSTVYYQGKCLTWKGPRRQLPAVVPAPLPPPCGSSAHLLPPVPGG", "percentage of EdU-negative": "23.2%"}
{"Sequence Text": "MKWMVVVLVCLQLLEAAVVKVPLKKFKSIRETMKEKGLLGEFLRTHKYDPAWKYRFGDLSVTYEPMAYMDAAYFGEISIGTPPQNFLVLFDTGSSNLWVPSVYCQSQACTSHSRFNPSESSTYSTNGQTFSLQYGSGSLTGFFGYDTLTVQSIQVPNQEFGLSENEPGTNFVYAQFDGIMGLAYPALSVDEATTAMQGMVQEGALTSPVFSVYLSNQQGSSGGAVVFGGVDSSLYTGQIYWAPVTQELYWQIGIEEFLIGGQASGWCSEGCQAIVDTGTSLLTVPQQYMSALLQATGAQEDEYGQFLVNCNSIQNLPSLTFIINGVEFPLPPSSYILSNNGYCTVGVEPTYLSSQNGQPLWILGDVFLRSYYSVYDLGNNRVGFATAA", "percentage of EdU-negative": "23.4%"}
